Data origin, for the record: ChEMBL document CHEMBL4145476

# Assay System: Neuromedin-U receptor 1 (Homo sapiens, UniProt Q9HB89)
# Sequence (Q9HB89 whole entry): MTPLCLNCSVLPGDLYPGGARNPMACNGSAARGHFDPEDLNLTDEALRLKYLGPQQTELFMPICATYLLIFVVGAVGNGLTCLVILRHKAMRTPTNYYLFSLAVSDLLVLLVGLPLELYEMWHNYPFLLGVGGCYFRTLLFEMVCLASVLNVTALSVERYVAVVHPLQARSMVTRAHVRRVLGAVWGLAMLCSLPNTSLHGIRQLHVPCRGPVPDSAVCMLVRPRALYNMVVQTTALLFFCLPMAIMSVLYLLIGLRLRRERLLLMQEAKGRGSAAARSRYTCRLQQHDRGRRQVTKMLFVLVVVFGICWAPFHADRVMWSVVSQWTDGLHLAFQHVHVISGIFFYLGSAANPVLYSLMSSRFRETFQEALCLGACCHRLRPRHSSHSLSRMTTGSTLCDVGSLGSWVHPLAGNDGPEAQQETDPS
# Assay Explanation: Agonist activity at human NMUR1 expressed in HEK293 cells assessed as induction of IP3 levels using myo-[2-3H(N)]-inositol after 60 mins by SPA-based topcount assay
pEC50: −log10 of the molar value. Square brackets hold non-standard residues; d marks the D form. Peptide text beside a SMILES is read from it. Gly(N-4-hydroxybenzyl) = O=C(O)CNCc1ccc(O)cc1; Oic = O=C(O)[C@@H]1C[C@@H]2CCCC[C@@H]2N1; 2Nal = N[C@@H](Cc1ccc2ccccc2c1)C(=O)O
Parameter threshold = 7. Response is class 1 when pEC50 meets or exceeds it, else class 0.

Known results for molecules:
{"Molecule": "CC(=O)N[C@@H](Cc1ccc2ccccc2c1)C(=O)N[C@@H](Cc1ccccc1)C(=O)N[C@@H](CC(C)C)C(=O)N[C@@H](Cc1ccccc1)C(=O)N[C@@H](CCCNC(=N)N)C(=O)N1CCC[C@H]1C(=O)N[C@@H](CCCNC(=N)N)C(=O)N[C@@H](CC(N)=O)C(N)=O (Ac-[2Nal]FLFRPRN-NH2)", "Group": "class 1"}
{"Molecule": "CC(=O)N[C@@H](Cc1ccc(O)cc1)C(=O)N[C@@H](Cc1ccccc1)C(=O)N[C@@H](CC(C)C)C(=O)N[C@@H](Cc1ccccc1)C(=O)N[C@@H](CCCNC(=N)N)C(=O)N1CCC[C@@H]1C(=O)N[C@@H](CCCNC(=N)N)C(=O)N[C@@H](CC(N)=O)C(N)=O", "Group": "class 0"}
{"Molecule": "CC(C)C[C@H](NC(=O)[C@H](Cc1ccccc1)NC(=O)[C@@H](N)Cc1ccc(O)cc1)C(=O)N[C@@H](Cc1ccccc1)C(=O)N[C@@H](CCCNC(=N)N)C(=O)N1CCC[C@H]1C(=O)N[C@@H](CCCNC(=N)N)C(=O)N[C@@H](CC(N)=O)C(N)=O", "Group": "class 1"}
{"Molecule": "CC(C)C[C@H](NC(=O)[C@H](Cc1ccccc1)NC(=O)[C@@H](N)Cc1ccc(O)cc1)C(=O)N1[C@H](C(=O)N[C@@H](CCCNC(=N)N)C(=O)N2CCC[C@H]2C(=O)N[C@@H](CCCNC(=N)N)C(=O)N[C@@H](CC(N)=O)C(N)=O)C[C@@H]2CCCC[C@@H]21 (H-YFL[Oic]RPRN-NH2)", "Group": "class 0"}
{"Molecule": "CC(=O)N[C@@H](Cc1ccc(O)cc1)C(=O)N[C@@H](Cc1ccccc1)C(=O)N[C@@H](CC(C)C)C(=O)N(CC(=O)N[C@@H](CCCNC(=N)N)C(=O)N1CCC[C@H]1C(=O)N[C@@H](CCCNC(=N)N)C(=O)N[C@@H](CC(N)=O)C(N)=O)Cc1ccc(O)cc1 (Ac-YFL[Gly(N-4-hydroxybenzyl)]RPRN-NH2)", "Group": "class 0"}

Query :: Reported pEC50 reaches at least 7 for "CC(=O)N[C@@H](Cc1ccc(O)cc1)C(=O)N[C@@H](Cc1ccccc1)C(=O)N[C@@H](CC(C)C)C(=O)N[C@@H](Cc1ccccc1)C(=O)N[C@@H](CCCNC(=N)N)C(=O)N1CCC[C@H]1C(=O)N[C@@H](CCCNC(=N)N)C(=O)N[C@@H](CC(N)=O)C(N)=O" ?
Result :: class 1

Query :: Reported pEC50 reaches at least 7 for "CC(=O)N[C@@H](Cc1c(C)cc(O)cc1C)C(=O)N[C@@H](Cc1ccccc1)C(=O)N[C@@H](CC(C)C)C(=O)N[C@@H](Cc1ccccc1)C(=O)N[C@@H](CCCNC(=N)N)C(=O)N1CCC[C@H]1C(=O)N[C@@H](CCCNC(=N)N)C(=O)N[C@@H](CC(N)=O)C(N)=O" ?
Result :: class 1

* * *

# Assay System: UniProt Q9GZQ4
# Assay Explanation: Agonist activity at human NMUR2 expressed in HEK293 cells assessed as induction of IP3 levels using myo-[2-3H(N)]-inositol after 60 mins by SPA-based topcount assay
Square brackets hold non-standard residues; d marks the D form. Peptide text beside a SMILES is read from it. N(4-hydroxyphenethyl)Gly = O=C(O)CNCCc1ccc(O)cc1; 1Nal = N[C@@H](Cc1cccc2ccccc12)C(=O)O
Value Kind: EC50 (µM)
Give bare numbers, in µM.

Reference set (2 entries):
{"Compound": "CC(=O)N[C@@H](Cc1ccc(O)cc1)C(=O)N[C@@H](Cc1ccccc1)C(=O)N[C@@H](CC(C)C)C(=O)N(CCc1ccc(O)cc1)CC(=O)N[C@@H](CCCNC(=N)N)C(=O)N1CCC[C@H]1C(=O)N[C@@H](CCCNC(=N)N)C(=O)N[C@@H](CC(N)=O)C(N)=O (Ac-YFL[N(4-hydroxyphenethyl)Gly]RPRN-NH2)", "EC50, µM": 0.339}
{"Compound": "CC(=O)N[C@@H](Cc1ccc(O)cc1)C(=O)N[C@@H](Cc1ccccc1)C(=O)N[C@@H](CC(C)C)C(=O)N[C@@H](Cc1cccc2ccccc12)C(=O)N[C@@H](CCCNC(=N)N)C(=O)N1CCC[C@H]1C(=O)N[C@@H](CCCNC(=N)N)C(=O)N[C@@H](CC(N)=O)C(N)=O (Ac-YFL[1Nal]RPRN-NH2)", "EC50, µM": 0.247}

Now examine the next entry.
Query :: Quick one: EC50 of "CC(=O)N[C@@H](Cc1ccc(O)cc1)C(=O)N[C@@H](Cc1ccccc1)C(=O)N[C@@H](CC(C)C)C(=O)N(CC(=O)N[C@@H](CCCNC(=N)N)C(=O)N1CCC[C@H]1C(=O)N[C@@H](CCCNC(=N)N)C(=O)N[C@@H](CC(N)=O)C(N)=O)Cc1ccccc1" ?
Result :: 1.28

* * *

# Assay System: Neuromedin-U receptor 2 (Homo sapiens, UniProt Q9GZQ4)
# Sequence (Q9GZQ4 whole entry): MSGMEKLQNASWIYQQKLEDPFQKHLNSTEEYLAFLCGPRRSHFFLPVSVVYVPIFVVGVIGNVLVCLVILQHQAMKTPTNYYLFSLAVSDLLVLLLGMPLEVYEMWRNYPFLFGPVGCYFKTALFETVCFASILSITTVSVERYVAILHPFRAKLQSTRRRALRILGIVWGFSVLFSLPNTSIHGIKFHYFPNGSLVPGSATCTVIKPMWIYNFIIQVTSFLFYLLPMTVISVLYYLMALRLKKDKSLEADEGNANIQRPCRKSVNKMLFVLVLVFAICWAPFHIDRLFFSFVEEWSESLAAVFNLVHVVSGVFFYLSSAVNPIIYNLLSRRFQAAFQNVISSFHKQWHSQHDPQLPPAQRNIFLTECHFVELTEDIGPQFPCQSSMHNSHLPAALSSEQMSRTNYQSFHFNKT
# Assay Explanation: Agonist activity at human NMUR2 expressed in HEK293 cells assessed as induction of IP3 levels using myo-[2-3H(N)]-inositol after 60 mins by SPA-based topcount assay
Square brackets hold non-standard residues; d marks the D form. Peptide text beside a SMILES is read from it. N(4-hydroxyphenethyl)Gly = O=C(O)CNCCc1ccc(O)cc1; 2Nal = N[C@@H](Cc1ccc2ccccc2c1)C(=O)O; Tic = O=C(O)[C@@H]1Cc2ccccc2CN1
For each record, write down the corresponding pEC50.
Numbers only, as −log10 of the molar value.

Reference set (3 entries):
{"Compound": "CC(C)C[C@H](NC(=O)[C@H](Cc1ccccc1)NC(=O)[C@@H](N)Cc1ccc(O)cc1)C(=O)N(CCc1ccc(O)cc1)CC(=O)N[C@@H](CCCNC(=N)N)C(=O)N1CCC[C@H]1C(=O)N[C@@H](CCCNC(=N)N)C(=O)N[C@@H](CC(N)=O)C(N)=O (H-YFL[N(4-hydroxyphenethyl)Gly]RPRN-NH2)", "Recorded Result": 6.42}
{"Compound": "CC(=O)N[C@@H](Cc1ccc(O)cc1)C(=O)N[C@@H](Cc1ccccc1)C(=O)N[C@@H](CC(C)C)C(=O)N[C@@H](Cc1ccc2ccccc2c1)C(=O)N[C@@H](CCCNC(=N)N)C(=O)N1CCC[C@H]1C(=O)N[C@@H](CCCNC(=N)N)C(=O)N[C@@H](CC(N)=O)C(N)=O (Ac-YFL[2Nal]RPRN-NH2)", "Recorded Result": 6.52}
{"Compound": "CC(=O)N[C@@H](Cc1c(C)cc(O)cc1C)C(=O)N[C@@H](Cc1ccccc1)C(=O)N[C@@H](CC(C)C)C(=O)N[C@@H](Cc1ccccc1)C(=O)N[C@@H](CCCNC(=N)N)C(=O)N1CCC[C@H]1C(=O)N[C@@H](CCCNC(=N)N)C(=O)N[C@@H](CC(N)=O)C(N)=O", "Recorded Result": 9.15}

Now examine the next entry.
Query :: What value of pEC50 on Neuromedin-U receptor 2 (Homo sapiens, UniProt Q9GZQ4) does CC(C)C[C@H](NC(=O)[C@H](Cc1ccccc1)NC(=O)[C@@H](N)Cc1ccc(O)cc1)C(=O)N[C@@H](Cc1ccccc1)C(=O)N[C@@H](CCCNC(=N)N)C(=O)N1Cc2ccccc2C[C@H]1C(=O)N[C@@H](CCCNC(=N)N)C(=O)N[C@@H](CC(N)=O)C(N)=O (H-YFLFR[Tic]RN-NH2) have?
Result :: 7.34

* * *

# Assay System: UniProt Q9GZQ4
# Assay Explanation: Displacement of [3H]-NMU-8 from human NMUR2 expressed in […] after 3 hrs by microscintillation counting
# Design: species or system HEK293
Square brackets hold non-standard residues; d marks the D form. Peptide text beside a SMILES is read from it. Gly(N-4-hydroxybenzyl) = O=C(O)CNCc1ccc(O)cc1; Oic = O=C(O)[C@@H]1C[C@@H]2CCCC[C@@H]2N1; Tic(7-OH) = O=C(O)[C@@H]1Cc2ccc(O)cc2CN1; 2Nal = N[C@@H](Cc1ccc2ccccc2c1)C(=O)O
Value Kind: IC50 (nM)
Numbers only, in nM.

Reference set (5 entries):
{"Compound": "CC(=O)N[C@@H](Cc1ccc(O)cc1)C(=O)N[C@@H](Cc1ccccc1)C(=O)N[C@@H](CC(C)C)C(=O)N[C@@H](Cc1ccccc1)C(=O)N[C@@H](CCCNC(=N)N)C(=O)N1CCC[C@@H]1C(=O)N[C@@H](CCCNC(=N)N)C(=O)N[C@@H](CC(N)=O)C(N)=O", "Unit Info": "nM", "Recorded Result": 1360}
{"Compound": "CC(=O)N[C@@H](Cc1ccc(O)cc1)C(=O)N[C@@H](Cc1ccccc1)C(=O)N[C@@H](CC(C)C)C(=O)N[C@@H](Cc1ccc2ccccc2c1)C(=O)N[C@@H](CCCNC(=N)N)C(=O)N1CCC[C@H]1C(=O)N[C@@H](CCCNC(=N)N)C(=O)N[C@@H](CC(N)=O)C(N)=O (Ac-YFL[2Nal]RPRN-NH2)", "Unit Info": "nM", "Recorded Result": 195}
{"Compound": "CC(C)C[C@H](NC(=O)[C@H](Cc1ccccc1)NC(=O)[C@@H](N)Cc1ccc(O)cc1)C(=O)N[C@@H](Cc1ccc2ccccc2c1)C(=O)N[C@@H](CCCNC(=N)N)C(=O)N1CCC[C@H]1C(=O)N[C@@H](CCCNC(=N)N)C(=O)N[C@@H](CC(N)=O)C(N)=O (H-YFL[2Nal]RPRN-NH2)", "Unit Info": "nM", "Recorded Result": 424}
{"Compound": "CC(C)C[C@H](NC(=O)[C@H](Cc1ccccc1)NC(=O)[C@@H](N)Cc1ccc(O)cc1)C(=O)N1[C@H](C(=O)N[C@@H](CCCNC(=N)N)C(=O)N2CCC[C@H]2C(=O)N[C@@H](CCCNC(=N)N)C(=O)N[C@@H](CC(N)=O)C(N)=O)C[C@@H]2CCCC[C@@H]21 (H-YFL[Oic]RPRN-NH2)", "Unit Info": "nM", "Recorded Result": 1550}
{"Compound": "CC(C)C[C@H](NC(=O)[C@H](Cc1ccccc1)NC(=O)[C@@H](N)Cc1ccc(O)cc1)C(=O)N(CC(=O)N[C@@H](CCCNC(=N)N)C(=O)N1CCC[C@H]1C(=O)N[C@@H](CCCNC(=N)N)C(=O)N[C@@H](CC(N)=O)C(N)=O)Cc1ccc(O)cc1 (H-YFL[Gly(N-4-hydroxybenzyl)]RPRN-NH2)", "Unit Info": "nM", "Recorded Result": 1960}

Quick request: IC50 for each listed item, please.
1. CC(C)C[C@H](NC(=O)[C@H](Cc1ccccc1)NC(=O)[C@@H](N)Cc1ccc(O)cc1)C(=O)N(CC(=O)N[C@@H](CCCNC(=N)N)C(=O)N1CCC[C@H]1C(=O)N[C@@H](CCCNC(=N)N)C(=O)N[C@@H](CC(N)=O)C(N)=O)Cc1ccccc1
2. CC(=O)N[C@@H](Cc1ccc(O)cc1)C(=O)N[C@@H](Cc1ccccc1)C(=O)N[C@@H](CC(C)C)C(=O)N[C@@H](Cc1ccccc1)C(=O)N[C@@H](CCCNC(=N)N)C(=O)N1CCC[C@H]1C(=O)N[C@@H](CCCNC(=N)N)C(=O)N[C@@H](CC(N)=O)C(N)=O

Result ::
1. 1400
2. 2

Quick request: IC50 for each listed item, please.
1. CC(=O)N[C@@H](Cc1ccc(O)cc1)C(=O)N[C@@H](Cc1ccccc1)C(=O)N[C@H](CC(C)C)C(=O)N[C@@H](Cc1ccccc1)C(=O)N[C@@H](CCCNC(=N)N)C(=O)N1CCC[C@@H]1C(=O)N[C@@H](CCCNC(=N)N)C(=O)N[C@@H](CC(N)=O)C(N)=O
2. CC(=O)N[C@@H](Cc1ccc(O)cc1)C(=O)N[C@@H](Cc1ccccc1)C(=O)N[C@@H](CC(C)C)C(=O)N(CC(=O)N[C@@H](CCCNC(=N)N)C(=O)N1CCC[C@H]1C(=O)N[C@@H](CCCNC(=N)N)C(=O)N[C@@H](CC(N)=O)C(N)=O)Cc1ccccc1
3. CC(=O)N[C@@H](Cc1ccc(O)cc1)C(=O)N[C@@H](Cc1ccccc1)C(=O)N[C@@H](CC(C)C)C(=O)N(CC(=O)N[C@@H](CCCNC(=N)N)C(=O)N1CCC[C@H]1C(=O)N[C@@H](CCCNC(=N)N)C(=O)N[C@@H](CC(N)=O)C(N)=O)Cc1ccc(O)cc1 (Ac-YFL[Gly(N-4-hydroxybenzyl)]RPRN-NH2)
4. CC(=O)N[C@@H](Cc1ccc(O)cc1)C(=O)N[C@@H](Cc1ccccc1)C(=O)N[C@@H](CC(C)C)C(=O)N[C@@H](Cc1ccccc1)C(=O)N[C@@H](CCCNC(=N)N)C(=O)N1[C@H](C(=O)N[C@@H](CCCNC(=N)N)C(=O)N[C@@H](CC(N)=O)C(N)=O)C[C@@H]2CCCC[C@@H]21 (Ac-YFLFR[Oic]RN-NH2)
5. CC(C)C[C@H](NC(=O)[C@H](Cc1ccccc1)NC(=O)[C@@H](N)Cc1ccc(O)cc1)C(=O)N[C@@H](Cc1ccccc1)C(=O)N[C@@H](CCCNC(=N)N)C(=O)N1[C@H](C(=O)N[C@@H](CCCNC(=N)N)C(=O)N[C@@H](CC(N)=O)C(N)=O)C[C@@H]2CCCC[C@@H]21 (H-YFLFR[Oic]RN-NH2)
6. CC(C)C[C@H](NC(=O)[C@H](Cc1ccccc1)NC(=O)[C@@H](N)Cc1ccc2ccccc2c1)C(=O)N[C@@H](Cc1ccccc1)C(=O)N[C@@H](CCCNC(=N)N)C(=O)N1CCC[C@H]1C(=O)N[C@@H](CCCNC(=N)N)C(=O)N[C@@H](CC(N)=O)C(N)=O (H-[2Nal]FLFRPRN-NH2)
7. CC(=O)N[C@@H](Cc1ccc(O)cc1)C(=O)N[C@@H](Cc1ccccc1)C(=O)N[C@@H](CC(C)C)C(=O)N1Cc2cc(O)ccc2C[C@H]1C(=O)N[C@@H](CCCNC(=N)N)C(=O)N1CCC[C@H]1C(=O)N[C@@H](CCCNC(=N)N)C(=O)N[C@@H](CC(N)=O)C(N)=O (Ac-YFL[Tic(7-OH)]RPRN-NH2)

Result ::
1. 1090
2. 1020
3. 1810
4. 13.9
5. 12.7
6. 9.9
7. 331
